Tested on: HS 578T breast
Assay: NCI-60 one-dose screen, 48 h
Conditions: 10 µM unless noted
The panel holds about 83,000 compounds, 20% with a hit somewhere; the sample as a whole holds those more often. Calls of active or inactive are those of the source. The calls were made as follows: active = growth percent below 10; inactive = the rest.
Respond with a class label; see active, inactive

Past entries and their recorded results:
CC[C@H](C)[C@H](NC(=O)NC(C)(C)C)C(=O)N(C)[C@H](C[C@@H](OC(C)=O)c1nc(C(=O)N[C@@H](Cc2ccccc2)C[C@H](C)C(=O)OC)cs1)C(C)C: active
O=C(CCl)c1ccc([N+](=O)[O-])o1: inactive

Field: next compound
Ask: Please indicate how the test categorized CCOC(=O)[C@@H](C)C[C@H](Cc1ccccc1)NC(=O)c1nc([C@@H](C[C@H](C(C)C)N(C)C(=O)[C@@H](NC(=O)[C@H]2CCCCN2C)C(C)C)OC(C)=O)sc1CCOCc1ccccc1 .
Reply: active

---

Tested on: UO-31 renal
Assay: NCI-60 one-dose screen, 48 h (100 = growth as untreated, 0 = no growth, -100 = all killed)
Settings: 10 µM unless noted
Compounds without any hit were thinned out: in the full panel of roughly 83,000, 20% have a hit.
parameter: growth (%)
Express it in %; write the number only.

Please review the entries below; each comes with its answer.
CC12CCC(O)CC1=CCC1C2CCC2(C)C(O)CCC12 (stereo not given): 98.5
CCOP(=O)(Nc1ccc2c(c1)/C(=N/NC(N)=S)c1ccccc1-2)OCC: 91.8
COC(=O)[C@@H](C)C[C@H](Cc1cn(C)c2ccccc12)NC(=O)c1csc([C@@H](C[C@H](C(C)C)N(C)C(=O)[C@@H](NC(=O)[C@H]2CCCCN2C)C(C)C)OC(C)=O)n1: 34.1

Ask: Need growth of CCC1(C(C)C)C(=O)NC(=S)NC1=O , thanks.
Reply: 97.4

Ask: Give its growth value. Item: CC[C@@H]1[C@@H](C)O[C@@](O)([C@@H](C)[C@H](O)[C@H](C)[C@H]2OC(=O)/C=C/C=C/[C@H](C)[C@@H]([C@@H](C)[C@@H](O)[C@H](C)[C@@]3(O)C[C@@H](O[C@H]4C[C@@H](O)[C@H](O)C(C)O4)[C@H](CC)[C@@H](C)O3)OC(=O)/C=C/C=C/[C@@H]2C)C[C@H]1O[C@@H]1C[C@@H](O)[C@H](O)C(C)O1 (stereo not given in full)
Reply: -97

Ask: Data request, read-out growth, for COc1cc(NC(C)CCCNC2CN3CCC2CC3)c2ncccc2c1 (stereo not given)
Reply: 38.3

Ask: Name the reported growth value associated with the compound O=C(CC1(O)C(=O)Nc2ccc(Br)cc21)c1ccc(C(=O)NCC2CCC3(CC2)OOC2(CCCCC2)OO3)cc1 (stereo not given)
Reply: -82.4

Ask: // growth lookup, key: COc1ccc(S(=O)(=O)N(Cc2ccc3c(c2)C=CC(C)(C)O3)c2ccccc2)cc1OC
Reply: 67.4

Ask: Entry CC(C)(C)C(=O)OCOP(=O)(OCOC(=O)C(C)(C)C)C1CCCN(O)C1=O (stereo not given) has what growth?
Reply: 5.91

Ask: # lookup: growth of CC[C@]12C=CCN3CC[C@]4(C(=C(C(=O)OC)C1)Nc1cc(OC)c(OC(C)=O)cc14)[C@@H]32
Reply: 28.6

Ask: What value of measured growth is listed for C1CCC2(CC1)OOCNCOO2 ?
Reply: 93.6

Data origin, for the record: PubChem BioAssay (NCI)
